Please respond with reported IC50, neutralizing activity (hMPV infection of LLC-MK2 cells; GraphPad Prism 6) for every item in the list.
- testSystem: F protein of human metapneumovirus strain JPS05-21 (type B2), on infectious virus (human metapneumovirus, strain JPS05-21 …)
- assayProcedure: cell-based or functional assay
Write it as a number; the unit µg/mL goes unstated.

Exercise: Give the reported IC50, neutralizing activity (hMPV infection of LLC-MK2 cells; GraphPad Prism 6) for this binder. EV046150 (antibody, human IgG1, kappa, V domains shown) VH: RVQLVQSGAEVKKPGSSVRVSCKASGGTFSNYSISWVRQVPGQGLEWMGRIIPILPLSSYPQQFQGRVAITADKSSTTAYMELSSLRIEDTAIYYCARDALRPEGGYYYYYFDVWGTGTTVTVSS VL: EIELTQSPGTLSLSPGERATLSCRANQIIGDTSLAWYQQKPGQAPRLLIFGASSRATGIPDRFSGSGFGSDFTLTITSLEPEDFAVYYCQQYGSSPTFGQGTKVEIKR
Key: 0.202

Exercise: Give the reported IC50, neutralizing activity (hMPV infection of LLC-MK2 cells; GraphPad Prism 6) for this binder. EV046113 (antibody, human IgG1, kappa, V domains shown) VH: QVQLVESGGGLVRPGGSLRLSCAASGFTFSDYFMTWIRQAPGKGLEWVSYINSIGSVIFYADSVEGRFTVSRDNTMKSLFLQMNSLTAEDTAVYYCARSCRISYGASGGFSCGMDVWGQGTPVTVSS VL: DIQMTQSPSSLSASVGDRVTITCQASQSIRENINWYQQKTGKAPKLLIYDASILETGVPSRFSGSGSGTHFTFTISSLQPEDMATYYCQQYHHLITFGQGTRLDIKR
Key: 0.491

Exercise: Give the reported IC50, neutralizing activity (hMPV infection of LLC-MK2 cells; GraphPad Prism 6) for this binder. EV046142 (antibody, human IgG1, lambda, V domains shown) VH: QVQLVQSGAEVKKPGSSVRVSCKASGGTFSTYGINWVRQARGQGLEWMGTVIPTFEKTYYAQGFQGRVTIAADGSKNTVYMELRRLTSEDSAIYFCTRFFTPYCSGGSCYLDLWGPGTLVTVSS VL: QSVLTQPPSVSGAPGQSVTISCAGSSSNIGAGYDVHWYQHLPGTAPRLLIYSNTNRPSGVPDRFSGSKSGASASLAITGLQAEDEADYYCQSYDSGVVFGGGTKLTVLR
Key: 0.273

Exercise: Give the reported IC50, neutralizing activity (hMPV infection of LLC-MK2 cells; GraphPad Prism 6) for this binder. EV046141 (antibody, human IgG1, lambda, V domains shown) VH: QVQLVQSGAEVKKPGASVKVSCKASGYTFADYYIHWLRQAPGQGLEWLGRINPSNSRTTYPQKFQGRVTVTRDTSTSTVYMELSSLRSADTAVYYCARDGLRMGYYYMDVWGKGTTVTVSS VL: QSVLTQPPSVSGAPGQRVTISCTGSSSNIGAGYDVHWYQQIPGTAPKLLIFGNYNRPSGVPDRFSASKSGTSASLAITGLQAEDEAHYYCQSYDTTLDGAVFGGGTKLTVLG
Key: 0.524

Exercise: Give the reported IC50, neutralizing activity (hMPV infection of LLC-MK2 cells; GraphPad Prism 6) for this binder. EV046124 (antibody, human IgG1, lambda, V domains shown) VH: QVQLVQSGTELKKPGASVKVSCKASGYTFTDYSMHWLRQAPGESLEWMGWVNGGPLDTKYSPTFQDRVSFSRDVFATTAYMDLSSLGPEDTAVYYCARGWGITAYRGDAFDLWGQGTMVIVSS VL: SFVLTQPPSVSVAPGKSARITCGASNIESKSVHWYQQKPGQAPVVVVYDDDDRPSGIPERFSGSNSGNTATLIINRVEVGDEADYYCQVWDSTSDMYVFGAGTKVTVLG
Key: 0.255
